Source of measurements: PubChem BioAssay (Tox21)

assay: cAMP Responsive Elements (CRE) small molecule agonists, cell-based qHTS assay (AID 1963590); conditions: CRE-bla HEK293T, beta-lactamase FRET ratio, 3 h; series mostly up to 92.4 µM
Inconclusive results are not listed. Active and inactive are the calls of the source. The call rests on the fitted dose curve.
ASSAY_READOUT: activation

Use these answered entries as a reference point.
1) CC12CCC(C1)C(C)(C)C2O (configuration not stated) ... inactive
2) Cc1c(I)c(=O)n(-c2ccccc2)n1C ... inactive
3) N=C(N)c1ccccc1 ... inactive
4) COC(=O)c1cc(Cl)c(NC(C)=O)cc1OC ... inactive
5) Cc1cc(C)c(S(=O)(=O)O)cc1N=Nc1cc(S(=O)(=O)O)c2ccccc2c1O ... inactive

Query: # return recorded activation for input `ClC(c1ccccc1)(c1ccccc1)c1ccccc1`
Reply: inactive

Query: Tell us which activation value is on record for `CCCc1ccc(N)cc1`
Reply: inactive

Query: Find the measured activation of `CC(C)(C)NC(=O)[C@@H]1CN(Cc2cccnc2)CCN1C[C@@H](O)C[C@@H](Cc1ccccc1)C(=O)N[C@H]1c2ccccc2C[C@H]1O` and report it.
Reply: inactive

Query: Answer with the recorded activation of `CCO/C([O-])=N/c1c[n+](N2CCOCC2)no1` only.
Reply: inactive

Query: Name the recorded activation of the item `C=C(C)C(=O)OCCNC(C)(C)C` in your answer.
Reply: inactive

Query: Name the recorded activation of the compound listed here: `N#CC1(c2ccc(F)cc2)CCC(=O)CC1`
Reply: inactive

Query: Report measured activation; entry is `CC(=O)[C@@]1(O)CC[C@H]2[C@@H]3CCC4=CC(=O)CC[C@]4(C)[C@H]3CC[C@@]21C`
Reply: inactive

* * *

biological target: 5-hydroxytryptamine receptor 2A (Homo sapiens) (UniProt P28223); test: 5-hydroxytryptamine receptor 2A (HTR2A) small molecule antagonists, cell-based qHTS assay (AID 1963586); details: HTR2A-CHO cells, DOI-induced calcium flux, fluorescence; series mostly up to 61.5 µM; further: nearly all actives have a fitted effect of over 45% in size
Sequence (P28223 whole entry, looked up): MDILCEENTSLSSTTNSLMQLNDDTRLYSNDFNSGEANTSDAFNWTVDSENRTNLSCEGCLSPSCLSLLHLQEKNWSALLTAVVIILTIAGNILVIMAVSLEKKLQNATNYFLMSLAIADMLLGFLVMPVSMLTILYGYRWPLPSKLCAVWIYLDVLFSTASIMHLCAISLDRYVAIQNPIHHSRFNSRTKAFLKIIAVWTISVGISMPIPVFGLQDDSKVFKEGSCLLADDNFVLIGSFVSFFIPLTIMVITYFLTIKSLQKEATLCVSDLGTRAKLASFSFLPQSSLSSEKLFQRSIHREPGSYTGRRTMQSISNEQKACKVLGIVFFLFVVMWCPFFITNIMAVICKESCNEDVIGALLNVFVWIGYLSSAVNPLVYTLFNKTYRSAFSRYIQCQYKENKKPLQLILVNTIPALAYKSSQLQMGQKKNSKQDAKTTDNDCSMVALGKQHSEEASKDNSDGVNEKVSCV
Results filed as inconclusive are left out. Calls of active or inactive are those of the source. The call rests on the fitted dose curve.
ASSAY_READOUT: activity, negative = inhibition

Reference set, count: 5
1) C=CCn1cc[n+](C)c1 ... inactive
2) NC(=O)c1cccc([N+](=O)[O-])c1 ... inactive
3) O=C(O[C@@H](C(=O)O)[C@@H](OC(=O)c1ccccc1)C(=O)O)c1ccccc1 ... inactive
4) CCN[C@H]1CN(CCCOC)S(=O)(=O)c2sc(S(N)(=O)=O)cc21 ... inactive
5) COC(=O)/C=C(/C)N ... inactive

Query: Please supply the value of reported activity, negative = inhibition for the item `CC(=O)NCc1c(I)c(NC(C)=O)c(I)c(C(=O)O)c1I`
Reply: inactive

Query: Name the recorded activity, negative = inhibition of the compound listed here: `N[C@H](Cc1c[nH]c2ccccc12)C(=O)O`
Reply: inactive

Query: Give the reported activity, negative = inhibition for this compound. `CCn1c2ccccc2c2ccccc21`
Reply: inactive

Query: Answer with reported activity, negative = inhibition of `O=c1[nH]c2cc(C(F)(F)F)c(N3CCOCC3)cc2n(CP(=O)(O)O)c1=O`
Reply: inactive

Query: Hello, please tell me recorded activity, negative = inhibition for this one: `O=[N+]([O-])c1cncn1CCN1CCOCC1`
Reply: inactive

Query: Give me measured activity, negative = inhibition, please, for this compound: `Fc1ccccc1-c1ccccc1`
Reply: inactive

Query: Item `CC(=O)OCCOCCOCCOC(C)=O` : provide activity, negative = inhibition
Reply: inactive

Query: Name the recorded activity, negative = inhibition of the compound listed here: `CCC(CO)(CO)CO`
Reply: inactive

* * *

target: Muscarinic acetylcholine receptor M1 (Homo sapiens); experiment: Cholinergic receptor muscarinic 1 (CHRM1) small molecule antagonists, cell-based qHTS assay (AID 1963588); details: CHRM1-CHO antagonist mode, calcium flux fluorescence; series mostly up to 61.5 µM; further: potency means the concentration at half of the fitted maximal effect; nearly all actives have a fitted effect of over 40% in size
Inconclusive results are not listed. The source made the active and inactive calls. Calls follow the shape of the full dose curve.
ASSAY_READOUT: Potency

The following compounds have reported results that may help.
1. COC(=O)c1ccccc1C(=O)c1ccc(OCCN2CCCCC2)cc1 ... 0.0365 µM (active)
2. CCCOC(C(=O)OC1CCN(C)CC1)(c1ccccc1)c1ccccc1 ... 0.729 µM (active)
3. Cc1nc(-c2ccc3c(c2)CCN(CCC2CCC(NC(=O)/C=C/c4ccc(F)cc4)CC2)CC3)no1 (stereo unspecified) ... 0.266 µM (active)
4. NCCO ... 18.8 µM (active)
5. CCCCCCCCCCCC[N+](C)(C)CCCS(=O)(=O)[O-] ... 33.8 µM (active)

Query: Check Muscarinic acetylcholine receptor M1 (Homo sapiens) data and give Potency for CCN1C(=O)c2ccccc2C1Nc1ccc(OCCN2CCCCC2)cc1 (stereo unspecified) .
Reply: 3.65 µM (active)

* * *

assay: p53 small molecule agonists, cell-based qHTS assay with rat liver microsomes (AID 1963578); conditions: HCT-116 p53RE-bla, beta-lactamase ratio, 16 h; series mostly up to 66 µM
Records with an inconclusive call do not appear. Active and inactive are the calls of the source. Calls follow the shape of the full dose curve.
ASSAY_READOUT: activation

1) CCOCCOCCOCC ... inactive
2) OCCOCCN1CCN(C2=Nc3ccccc3Sc3ccccc32)CC1 ... inactive
3) O=C1CCCc2ccccc21 ... inactive
4) CC(=O)N(O)CCCCCNC(=O)CCC(=O)N(O)CCCCCNC(=O)CCC(=O)N(O)CCCCCN ... inactive
5) NC(=O)Nc1ccc(Cl)cc1 ... inactive

Query: Note activation for the molecule shown: `CCOC(=O)c1ccc(N)cc1`
Reply: inactive

Query: Tell us which activation value is on record for `Cn1c(=O)c2c(ncn2C)n(C)c1=O`
Reply: inactive

Query: State its activation for this molecule: `C1CCC(SSC2CCCCC2)CC1`
Reply: inactive

Query: Return reported activation. Input molecule: `CC(C)CCCCCCc1ccc(O)cc1`
Reply: inactive

Query: Indicate its recorded activation; the molecule in question is CO[Si](CCCOCC1CO1)(OC)OC (centres undefined)
Reply: inactive

Query: Please report activation for the following molecule: `CC(C)(CCl)c1ccccc1`
Reply: inactive

Query: Note down activation recorded for `O=c1[nH]c2ccccc2c(=O)n1CCCl`
Reply: inactive

Query: Give a short answer stating reported activation for `C=C(C)C(=O)OCCCCCCOC(=O)C(=C)C` .
Reply: inactive

Query: // fetch activation given entry `CCCCc1ncc(/C=C(\Cc2cccs2)C(=O)O)n1Cc1ccc(C(=O)O)cc1`
Reply: inactive

* * *

target: KiSS-1 receptor (Homo sapiens); experiment: Human kisspeptin (KISS1R) small molecule agonists, calcium flux assay in KISS1R-HEK293 cells (AID 1920064); conditions: KISS1R-HEK293, calcium flux fluorescence, agonist; series mostly up to 76.8 µM
The source made the active and inactive calls. The call rests on the fitted dose curve; in most records, active means well fitted activation curve with a large enough effect in the repeat runs; inconclusive means weak or mixed curves; inactive means flat fitted curve, though single readings scatter.
ASSAY_READOUT: activation

Illustrative cases are given below, each with its answer.
1. COC(OC)C(C)c1ccccc1 (centres undefined) ... inactive
2. C=Cc1ccccn1 ... inactive
3. CCCCC(CC)COCC1CO1 (centres undefined) ... inactive
4. CCCCCCCCCCCC[N+](C)(C)CCCS(=O)(=O)[O-] ... inactive
5. CCOC(C)(C)C ... inactive

Query: Give the reported value of activation for this record: `CN(C)CCCNCCCN`
Reply: inactive

Query: Return the recorded activation value; entry: `CCOCCOCCOCCO`
Reply: inactive

Query: Quick one: give measured activation for `COc1ccc2c(c1)CCCC2=O`
Reply: inactive

Query: Report measured activation; entry is `COC(=O)c1cc(Cl)c(NC(C)=O)cc1OC`
Reply: inactive

Query: Answer with the recorded activation for the molecule listed here: `Cc1ccc(S(=O)(=O)O)c(C)c1`
Reply: inactive

Query: Output activation of `O=C(Cl)c1ccccc1[N+](=O)[O-]`
Reply: inactive

Query: Quote activation reported for `CC(C)CCCCCCc1ccc(O)cc1` please.
Reply: inactive

* * *

test: p53 small molecule agonists, cell-based qHTS assay (AID 1963582); details: HCT-116 p53RE-bla reporter, beta-lactamase FRET ratio, 16 h; series mostly up to 66 µM
Results filed as inconclusive are left out. The source made the active and inactive calls. The call rests on the fitted dose curve; in most records, active means well fitted activation curve with a large enough effect in the signal ratio in the repeat runs (not every such curve was filed as active); inconclusive means weak or mixed curves; inactive means flat fitted curve, though single readings scatter; the % refers to the signal ratio.
ASSAY_READOUT: activation

// known answers, use as guide
1. CCN(CC)CCN ... inactive
2. COc1cccc(OC)c1O ... inactive
3. Nc1ccc(NCCO)c([N+](=O)[O-])c1 ... inactive
4. CC12CC3CC(C)(C1)CC(N)(C3)C2 ... inactive
5. CCCCC1CCC(=O)O1 (configuration not stated) ... inactive

Query: Note down activation recorded for `CCOC(=O)[C@H](CCc1ccccc1)N[C@@H](C)C(=O)N1C(=O)N(C)C[C@H]1C(=O)O`
Reply: inactive

Query: Recall and state the measured activation for `CC(=O)CC(=O)Nc1ccccc1C` .
Reply: inactive
